Origin of values: patent US10287251B2

Please provide measured % inhibition of Wet-Dog Shake for the entries that follow.
# target.entity: TRPM8 (Rattus norvegicus)
# Construct: from tissue; host or cells: whole animal, female SD rats (in vivo)
# Sequence (Q8R455 whole entry): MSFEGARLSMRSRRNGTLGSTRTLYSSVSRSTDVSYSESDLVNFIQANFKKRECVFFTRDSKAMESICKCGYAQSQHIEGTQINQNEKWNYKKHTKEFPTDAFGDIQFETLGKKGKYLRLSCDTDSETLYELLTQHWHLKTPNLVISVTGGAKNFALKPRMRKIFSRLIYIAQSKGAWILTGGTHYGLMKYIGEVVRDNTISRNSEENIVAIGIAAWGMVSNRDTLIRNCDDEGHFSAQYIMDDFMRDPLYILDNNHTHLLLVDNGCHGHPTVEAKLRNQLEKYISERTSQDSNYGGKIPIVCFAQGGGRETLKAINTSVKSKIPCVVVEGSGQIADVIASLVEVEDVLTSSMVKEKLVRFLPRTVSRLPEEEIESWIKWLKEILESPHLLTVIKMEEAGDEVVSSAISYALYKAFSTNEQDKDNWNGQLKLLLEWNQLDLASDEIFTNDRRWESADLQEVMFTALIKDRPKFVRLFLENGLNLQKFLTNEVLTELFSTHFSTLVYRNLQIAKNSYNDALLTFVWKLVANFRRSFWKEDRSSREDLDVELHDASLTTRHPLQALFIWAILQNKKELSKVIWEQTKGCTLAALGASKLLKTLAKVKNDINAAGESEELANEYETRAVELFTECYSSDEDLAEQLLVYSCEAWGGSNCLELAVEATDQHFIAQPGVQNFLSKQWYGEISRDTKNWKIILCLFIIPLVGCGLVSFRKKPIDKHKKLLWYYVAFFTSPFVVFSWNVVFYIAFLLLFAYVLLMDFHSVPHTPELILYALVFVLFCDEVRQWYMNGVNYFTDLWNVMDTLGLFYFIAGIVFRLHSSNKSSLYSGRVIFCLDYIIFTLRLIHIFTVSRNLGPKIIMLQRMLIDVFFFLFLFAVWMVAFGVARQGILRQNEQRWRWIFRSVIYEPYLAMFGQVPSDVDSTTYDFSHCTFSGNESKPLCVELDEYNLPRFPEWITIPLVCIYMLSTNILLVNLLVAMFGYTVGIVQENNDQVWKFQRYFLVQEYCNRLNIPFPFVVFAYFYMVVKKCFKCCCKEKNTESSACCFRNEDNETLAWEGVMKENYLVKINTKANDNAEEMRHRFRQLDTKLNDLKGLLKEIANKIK
# protocol.description: Confirmation test of inhibitory effects on icilin-induced wet-dog shakes
# Type: in vivo
# settings: female SD rats, oral dose 3 mg/kg, icilin 1 mg/kg i.p. 1 hour after dosing, shakes counted for 5 minutes
Kindly provide the numeric value in % only, without the unit symbol.

Kindly state the measured % inhibition of Wet-Dog Shake obtained for O=C(N[C@@H](CCO)Cc1ccccn1)c1ccccc1-c1cc(-c2ccc(F)cc2)[nH]n1 [Example 1-208] with TRPM8 (Rattus norvegicus).
100

Query for TRPM8 (Rattus norvegicus): what % inhibition of Wet-Dog Shake does the record show for O=C(N[C@@H](CO)Cc1ccccn1)c1ccccc1-c1cc(-c2ccc(F)c(F)c2)[nH]n1 [Example 1-29] ?
66

So what % inhibition of Wet-Dog Shake did CO[C@H](CO)[C@@H](Cc1ncccc1C#N)NC(=O)c1cccc(F)c1-c1cc(-c2ccc(F)cc2)[nH]n1 [Example 27-16] get with TRPM8 (Rattus norvegicus)?
56

Provide the documented % inhibition of Wet-Dog Shake with TRPM8 (Rattus norvegicus) as the system for C[C@H](O)C[C@@H](Cc1ccccn1)NC(=O)c1cccc(F)c1-c1cc(-c2ccc(F)cc2)[nH]n1 [Example 1-130]
92

Missing value: % inhibition of Wet-Dog Shake, TRPM8 (Rattus norvegicus), entry O=C(N[C@H](Cc1ccccn1)[C@H](O)CO)c1cccc(Cl)c1-c1cc(-c2ccc(F)cc2)[nH]n1 [Example 1-169] . Fill in?
34

Write down the reported % inhibition of Wet-Dog Shake of COC(c1ccccn1)[C@H](CCO)NC(=O)c1cccc(F)c1-c1cc(-c2ccc(F)cc2)[nH]n1 (stereo partly drawn) [Example 43-9] , test system: TRPM8 (Rattus norvegicus).
89

###

# target.entity: TRPM8 (Rattus norvegicus)
# Construct: from tissue; host or cells: whole animal, female SD rats (in vivo)
# protocol.description: Confirmation test of inhibitory effects on icilin-induced wet-dog shakes
# Format: in vivo
# settings: female SD rats, oral dose 3 mg/kg, icilin 1 mg/kg i.p. 1 hour after dosing, shakes counted for 5 minutes
Binary classification by % inhibition of Wet-Dog Shake, with 60% as an inclusive lower bound for t; all other cases are f.

Hello, I need to know if O=C(N[C@@H](CO)C(O)c1ccccn1)c1cccc(F)c1-c1cc(-c2ccc(F)cc2)[nH]n1 (single isomer, unassigned) [Example 54-2] has measured % inhibition of Wet-Dog Shake not below 60%. Thanks!
f

API: above_or_equal(metric=% inhibition of Wet-Dog Shake, cutoff=60%) for item COc1cccnc1C[C@H](CO)NC(=O)c1cccc(F)c1-c1cc(-c2ccc(F)cc2)[nH]n1
t

Check if % inhibition of Wet-Dog Shake >= 60% (inclusive). Item: COC(c1ccccn1)[C@H](CO)NC(=O)c1cccc(F)c1-c1cc(-c2ccc(F)cc2)[nH]n1 (stereo partly shown) [Example 43-6]
f

// inclusive: % inhibition of Wet-Dog Shake at least 60%? input: O=C(N[C@@H](CO)Cc1ccccc1)c1ccccc1-c1cc(-c2ccc(F)c(F)c2)[nH]n1
f

Exam item: decide whether the reported % inhibition of Wet-Dog Shake for O=C(N[C@H](Cc1ncccn1)[C@@H](O)CF)c1cccc(F)c1-c1cc(-c2ccc(F)cc2)[nH]n1 is at least 60%.
t

Reported % inhibition of Wet-Dog Shake reaches at least 60% for O=C(N[C@@H](CO)C(O)c1ccccn1)c1cccc(F)c1-c1cc(-c2ccc(F)cc2)[nH]n1 (single isomer, unassigned) [Example 54-1] ?
t
